Recorded minimum inhibitory concentration values for a group of molecules are listed next.
test system: Enterococcus spp.; assay: minimum inhibitory concentration (MIC); details: isolate (source animal id): 268
measuredQuantity: minimum inhibitory concentration (µg/mL)

* CO/N=C(\C(=O)N[C@@H]1C(=O)N2C(C(=O)O)=C(CSC(=O)c3ccco3)CS[C@H]12)c1csc(N)n1 [Ceftiofur] | 0.5
* CCN1CCN(c2cc3c(cc2F)c(=O)c(C(=O)O)cn3C2CC2)CC1 [Enrofloxacin] | 0.25
* CN[C@@H]1[C@H](O)[C@H](NC)[C@H]2O[C@@]3(O)C(=O)C[C@@H](C)O[C@H]3O[C@@H]2[C@H]1O [Spectinomycin] | 32
* CN(C)[C@@H]1C(O)=C(C(N)=O)C(=O)[C@@]2(O)C(O)=C3C(=O)c4c(O)cccc4[C@@](C)(O)[C@H]3C[C@@H]12 [Tetracycline] | 1
